- Target Entity: human FAAH (Fatty Acid Amide Hydrolase) (Homo sapiens)
- Construct: The full length FAAH was subcloned into the mammalian expression vector, pcDEF.neo, using XbaI and EcoRI restriction sites; expressed in transfected cells
- Sequence (O00519 1-579): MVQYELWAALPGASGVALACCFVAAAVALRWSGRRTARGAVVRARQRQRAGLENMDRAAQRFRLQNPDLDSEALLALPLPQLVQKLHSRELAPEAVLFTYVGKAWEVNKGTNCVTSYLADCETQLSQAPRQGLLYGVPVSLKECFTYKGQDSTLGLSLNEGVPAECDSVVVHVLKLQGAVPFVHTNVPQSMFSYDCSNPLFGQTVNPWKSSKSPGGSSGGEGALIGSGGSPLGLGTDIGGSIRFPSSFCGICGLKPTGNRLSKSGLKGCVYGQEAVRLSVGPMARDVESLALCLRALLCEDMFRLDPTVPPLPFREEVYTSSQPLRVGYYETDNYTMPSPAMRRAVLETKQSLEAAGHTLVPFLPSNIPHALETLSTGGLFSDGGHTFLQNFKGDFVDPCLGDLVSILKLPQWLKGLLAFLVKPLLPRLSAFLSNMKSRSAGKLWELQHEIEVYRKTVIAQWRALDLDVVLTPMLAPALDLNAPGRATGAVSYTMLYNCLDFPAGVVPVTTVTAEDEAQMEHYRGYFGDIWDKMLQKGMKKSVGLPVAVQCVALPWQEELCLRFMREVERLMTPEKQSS
- Method: FAAH whole cell assay on CHO cells expressing human FAAH (human WC), AAMCA fluorescent substrate
- Format: cell-based
- Experimental Setup: human FAAH_CHO whole cell
Could you mark each record YES if its IC50 falls strictly under 400 nM, and NO if it equals or exceeds it?

CC(C1COc2ccccc2O1)N(C)C(=O)c1[nH]c2ncccc2c1Sc1ccc(Cl)cc1 (stereo not drawn); NO
Clc1ccc(Sc2c(C3=CCCOC3)[nH]c3ncccc23)cc1; YES
Clc1ccc(Sc2c(-c3ccsc3)[nH]c3ncccc23)cc1; NO
Cc1n[nH]c(C)c1-c1[nH]c2ncccc2c1Sc1ccc(Cl)cc1; YES
CCn1cccc2c(Sc3ccc(Cl)cc3)c(-c3ccc4c(c3)OCO4)nc1-2; YES
Cn1cc2cc(-c3[nH]c4ncccc4c3Sc3ccc(Cl)cc3)ccc2n1; YES
OC(c1ccc(-c2[nH]c3ncccc3c2Sc2ccc(Cl)cc2)cc1)C(F)(F)F (stereo not drawn); YES
O=C(NCCCCO)c1[nH]c2ncccc2c1Sc1ccc(Cl)cc1; YES

Next compound, please.
# input Quick check: does CC(O)C/C=C/c1[nH]c2ncccc2c1Sc1ccc(Cl)cc1 (stereo not drawn) have IC50 under 400 nM?
# output YES

* * *

Recorded measurements of log10 of IC50, one per entry
- Target Entity: human FAAH (Fatty Acid Amide Hydrolase) (Homo sapiens, UniProt O00519)
- Construct: The full length FAAH was subcloned into the mammalian expression vector, pcDEF.neo, using XbaI and EcoRI restriction sites; expressed in transfected cells
- Sequence (O00519 1-579): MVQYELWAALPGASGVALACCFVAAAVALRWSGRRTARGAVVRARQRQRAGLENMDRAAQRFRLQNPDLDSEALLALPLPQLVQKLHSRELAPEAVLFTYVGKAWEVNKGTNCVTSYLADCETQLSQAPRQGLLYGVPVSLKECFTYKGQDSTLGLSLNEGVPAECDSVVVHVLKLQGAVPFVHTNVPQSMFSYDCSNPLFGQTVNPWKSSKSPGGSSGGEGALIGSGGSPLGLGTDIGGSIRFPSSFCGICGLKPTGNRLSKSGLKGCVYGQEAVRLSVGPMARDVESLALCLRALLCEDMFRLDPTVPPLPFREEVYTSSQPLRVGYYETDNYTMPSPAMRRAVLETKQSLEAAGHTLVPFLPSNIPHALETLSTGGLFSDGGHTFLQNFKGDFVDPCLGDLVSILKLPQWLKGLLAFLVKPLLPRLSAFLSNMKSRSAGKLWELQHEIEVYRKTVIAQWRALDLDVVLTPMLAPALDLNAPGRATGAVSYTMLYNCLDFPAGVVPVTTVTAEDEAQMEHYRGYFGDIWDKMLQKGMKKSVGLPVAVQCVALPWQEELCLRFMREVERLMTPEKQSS
- Method: FAAH enzyme assay on CHO cell lysate expressing human FAAH (human LY), AAMCA fluorescent substrate
- Type: biochemical
- Experimental Setup: human FAAH_CHO cell lysate
All values: base-10 log of IC50 in nM.

Cn1cccc2c(Sc3ccc(Cl)cn3)c(-c3ccc4[nH]ncc4c3)nc1-2; 1.19
OC(c1ccccc1)c1[nH]c2ncccc2c1Sc1ccc(Cl)cc1 (centres unmarked); 3.77
Cn1cccc2c(Sc3ccc(Cl)cc3)c(C(=O)Nc3ccc4c(c3)OCCO4)nc1-2; 2.23
Clc1ccc(Sc2c(-c3ccc4[nH]ncc4c3)[nH]c3ncccc23)cc1; 0.33
OC[C@H]1CC[C@@H](c2[nH]c3ncccc3c2Sc2ccc(Cl)cc2)CC1; 1.16

# input Consider the molecule OC1CCN(Cc2[nH]c3ncccc3c2Sc2ccc(Cl)cc2)CC1 tested on human FAAH (Fatty Acid Amide Hydrolase) (Homo sapiens, UniProt O00519); state its log10 of IC50.
# output 1.91

# input Find the measured log10 of IC50 of O=C(Nc1ccc2[nH]ncc2c1)c1[nH]c2ncccc2c1Sc1ccc(Cl)cc1 with human FAAH (Fatty Acid Amide Hydrolase) (Homo sapiens, UniProt O00519) as test system.
# output 0.99

# input Please tell me the measured log10 of IC50 for O=C1NCc2cc(-c3[nH]c4ncccc4c3Sc3ccc(Cl)cn3)ccc21 ; system: human FAAH (Fatty Acid Amide Hydrolase) (Homo sapiens, UniProt O00519).
# output 1.09

# input State recorded log10 of IC50 with human FAAH (Fatty Acid Amide Hydrolase) (Homo sapiens, UniProt O00519), entry CSc1ccc(-c2[nH]c3ncccc3c2Sc2ccc(Cl)cn2)cc1 , no comment.
# output 0.47

# input # lookup: human FAAH (Fatty Acid Amide Hydrolase) (Homo sapiens, UniProt O00519) log10 of IC50, key = OC1CC=C(c2[nH]c3ncccc3c2Sc2ccc(Cl)cc2)CC1 (centres unmarked)
# output 0.25

# input Please report log10 of IC50 with human FAAH (Fatty Acid Amide Hydrolase) (Homo sapiens, UniProt O00519) for item Clc1ccc(Sc2c(-c3ccnc4[nH]ccc34)[nH]c3ncccc23)cc1 .
# output 0.50
